- System: MDA-MB-435 melanoma
- procedureText: NCI-60 one-dose screen, 48 h (100 = growth as untreated, 0 = no growth, -100 = all killed)
- conditionsUsed: 10 µM unless noted
The panel holds about 83,000 compounds, 20% with a hit somewhere; the sample as a whole holds those more often.
Returns 1 (yes) if the recorded growth is greater than or equal to 60%, and 0 (no) otherwise.

COc1ccc(S(=O)(=O)N(C(C)=O)c2ccccc2/C=C/c2cc[n+]([O-])cc2)cc1: 0 (no)

stdin: Does the compound `Nc1nc(Nc2ccccc2)c(C=Nc2ccccc2)c(=O)[nH]1` have recorded growth that is 60% or more?
stdout: 1 (yes)

stdin: Does the compound `CCc1nc2cc(/C=C/C(=O)NO)c(F)cc2c(=O)n1CCc1ccccc1` have recorded growth that is 60% or more?
stdout: 0 (no)

stdin: Does the compound `COc1cc2cc(NCc3ccc(F)cc3)nc(C)c2cc1OC` have recorded growth that is 60% or more?
stdout: 0 (no)

stdin: Does the compound `Cc1nc2ccc(-n3ncc(C(=O)c4cc5ccccc5[nH]4)c3N)cc2[nH]1` have recorded growth that is 60% or more?
stdout: 1 (yes)

stdin: Does the compound `COC(=O)c1ccc2c(C(=Nc3ccc(N(C)C(=O)CN4CCN(C)CC4)cc3)c3ccccc3)c(O)[nH]c2c1` have recorded growth that is 60% or more?
stdout: 1 (yes)

stdin: Does the compound `COc1cccc(Nc2ncnn3ccc(CN4CC[C@@H](N)[C@H](O)C4)c23)c1` have recorded growth that is 60% or more?
stdout: 1 (yes)

stdin: Does the compound `Cc1cc(O)cc(-c2c(-c3ccnc(-c4cccnc4)c3)cnn2C)c1` have recorded growth that is 60% or more?
stdout: 1 (yes)

stdin: Does the compound `CNC(=O)c1nn(C)c2c1C(C)(C)Cc1cnc(Nc3ccc(N4CCN(C)CC4)cc3)nc1-2` have recorded growth that is 60% or more?
stdout: 0 (no)

stdin: Does the compound `C/C(=C(/c1ccc(Cl)cc1)c1ccc(OCCN2CCCC2)cc1)c1ccccc1` have recorded growth that is 60% or more?
stdout: 0 (no)

---

- System: HCT-116 colon
- procedureText: NCI-60 one-dose screen, 48 h
- conditionsUsed: 10 µM unless noted
The panel holds about 83,000 compounds, 20% with a hit somewhere; the sample as a whole holds those more often. Calls of active or inactive are those of the source. The calls were made as follows: active = growth percent below 10; inactive = the rest.
# valid calls are active, inactive; nothing else

Observe how each entry below is paired with its result.
CC(N)C(Cc1ccccc1)c1ccc(Cl)cc1 (centres undefined): inactive
CCc1nc2ccc(Cc3ccc(C(=O)NO)cc3)cc2c(=O)n1CCc1ccccc1: active
COc1cc2nc(Nc3cccc(Cl)c3)nc(N)c2cc1OC: inactive
CNC(=O)CN1CCC(Oc2cc3c(Nc4cccc(Cl)c4F)ncnc3cc2OC)CC1: inactive
C/C(=N\NC(=O)Cn1c(-c2ccc(S(C)(=O)=O)cc2)nc2ccccc21)c1ccc(Cl)cc1: inactive
Cn1cc(-c2cnn3c(N)c(Br)c([C@@H]4CCCNC4)nc23)cn1: inactive
O=C(Cn1ccc2ccccc21)Nc1ccc(-c2nc3ccccc3s2)cc1: inactive
C=CC(=O)Nc1cccc(Oc2nc(Nc3ccc(N4CCN(C)CC4)cc3)nc3ccsc23)c1: active

Now for another entry.
stdin: Which result was noted for this molecule in the test: COC(=O)[C@@H](OC)[C@@H]1Cc2cc3cc(OC4CC(OC5CC(O)C(O)C(C)O5)C(O)C(C)O4)c(C)c(O)c3c(O)c2C(=O)[C@H]1OC1CC(OC2CC(OC3CC(C)(O)C(O)C(C)O3)C(O)C(C)O2)C(O)C(C)O1 (some centres undefined)
stdout: active

---

- Tested on: MCF7 breast
- procedureText: NCI-60 one-dose screen, 48 h (100 = growth as untreated, 0 = no growth, -100 = all killed)
- conditionsUsed: 10 µM unless noted
About 83,000 compounds went through this panel and 20% of them were active in at least one assay; those are over-represented in the sample as a whole. The source made the active and inactive calls. The calls were made as follows: active = growth percent below 10; inactive = the rest.
quantityKind: growth

CC[C@@H]1C(=O)N(C)c2cnc(Nc3ccc(C(=O)NC4CCN(C)CC4)cc3OC)nc2N1C1CCCC1: 7.63% (active)
CC(=Nc1ccccc1)C1=C(O)C(Cc2ccccc2)NC1=O (stereo not given): 9.54% (active)
ClCc1ccc(-c2ccc(Cn3cnc4c(Cl)nc(Cl)nc43)cc2)cc1: -31.8% (active)
Oc1ccc(C(c2ccc(O)cc2)C(Cl)(Cl)Cl)cc1: 111% (inactive)
Oc1ccc(/C=N/Nc2nnc(N/N=C/c3ccc(O)cc3O)c3ccccc23)c(O)c1: -57.2% (active)

stdin: Given the entry `CNC(=O)c1cc(COc2nnc(Nc3ccc(Cl)cc3)c3ccoc23)ccn1` , report its measured growth.
stdout: 48.1% (inactive)

stdin: Given the entry COC(=O)CC[C@@H](C)[C@H]1CC[C@H]2C3CC[C@@H]4C[C@@H]5CC[C@]4(C)[C@@]3(O5)[C@H](Br)[C@@H](Br)[C@]12C (stereo not given in full) , report its measured growth.
stdout: 87.7% (inactive)

stdin: Given the entry `O=C(O)c1ccc(Nc2ncc3c(n2)-c2ccc(Cl)cc2C(c2c(F)cccc2F)=NC3)cc1` , report its measured growth.
stdout: 49.3% (inactive)

stdin: Given the entry `Clc1ccc(Nc2nccc(Nc3ccc4[nH]ncc4c3)n2)cc1` , report its measured growth.
stdout: 25% (inactive)

stdin: Given the entry CCC1(/C=N/NC(N)=S)NC(=O)NC1=O (stereo not given) , report its measured growth.
stdout: 97.7% (inactive)

stdin: Given the entry `CC(=O)c1c(C)c2cnc(Nc3ccc(N4CCNCC4)cn3)nc2n(C2CCCC2)c1=O` , report its measured growth.
stdout: 27.4% (inactive)

stdin: Given the entry `CO[C@H]1C[C@@H]2CC[C@@H](C)[C@@](O)(O2)C(=O)C(=O)N2CCCC[C@H]2C(=O)O[C@H]([C@H](C)C[C@@H]2CC[C@@H](OCCO)[C@H](OC)C2)CC(=O)[C@H](C)/C=C(\C)[C@@H](O)[C@H](OC)C(=O)[C@H](C)C[C@H](C)\C=C/C=C/C=C/1C` , report its measured growth.
stdout: 35.8% (inactive)

stdin: Given the entry `Cn1ccnc1C(=O)/C=C/c1ccc(CC(=O)Nc2ccc(C(F)(F)F)cc2)cc1` , report its measured growth.
stdout: 8.41% (active)

stdin: Given the entry O=C1C=CC2(NN=C(c3ccccc3)N2c2ccc(Cl)cc2)c2cccc(O)c21 (stereo not given) , report its measured growth.
stdout: 45.4% (inactive)

stdin: Given the entry `COc1ccc(Cl)c(Nc2nc3ccccc3nc2NS(=O)(=O)c2cccc(NC(=O)C(C)(C)N)c2)c1` , report its measured growth.
stdout: 20.3% (inactive)

---

- Test system: MCF7 breast
- procedureText: NCI-60 one-dose screen, 48 h (100 = growth as untreated, 0 = no growth, -100 = all killed)
- conditionsUsed: 10 µM unless noted
- Experimental: Growth inhibition of the MCF7 human tumor cell line is measured as a screen for anti-cancer activity. Cells are grown in 96 well plates and exposed to the test compound for 48 hours. Compounds are tested at a single concentration, which is 10^-5 M for most compounds. The reported endpoint is percent growth (GI% or GIPRCNT), where numbers from 0 - 100% represent growth inhibition, and numbers from -100% - 0 represent cell death. For example, a value of 40 represents 60% growth inhibition. […]
The panel holds about 83,000 compounds, 20% with a hit somewhere; the sample as a whole holds those more often.
quantityKind: growth (%)
Give the value, in units of %, as a plain number.

Cc1cc2c(-c3nc4ccccn4c3Nc3cccc4ccccc34)c(O)c(O)cc2c(O)c1-c1c(C)cc2c(-c3nc4ccccn4c3Nc3cccc4ccccc34)c(O)c(O)cc2c1O: 14.7
CCOc1cc2ncc(C#N)c(Nc3ccc(F)c(Cl)c3)c2cc1NC(=O)/C=C/CN(C)C: -41.7
N#Cc1c(C(F)(F)F)cc(Nc2ccc3nc(NCCN4CCCC4)oc3c2)n2c1nc1ccccc12: 38.9
CC(=Nc1ccccc1)C1=C(O)C(Cc2ccc(O)cc2)NC1=O (stereo not drawn): 10
C#Cc1cccc(Nc2ncnc3cc4c(cc23)OCCOCCOCCO4)c1: 56.1

stdin: Given the entry `C[C@@H]1COC(Nc2ccc3ncnc(Nc4ccc(OCc5nccs5)c(Cl)c4)c3c2)=N1` , report its measured growth.
stdout: 45.1

stdin: Given the entry CCCC(=O)OCC1OC(n2cnc3c(=S)nc[nH]c32)C(OC(=O)CCC)C1OC(=O)CCC (stereo not drawn) , report its measured growth.
stdout: 24.2

stdin: Given the entry `COCC(=O)NC/C=C/c1ccc2ncnc(Nc3ccc(Oc4ccc(C)nc4)c(C)c3)c2c1` , report its measured growth.
stdout: 49.1

stdin: Given the entry `CNC(=O)c1nn(C)c2c1C(C)(C)Cc1cnc(Nc3ccc(N4CCN(C)CC4)cc3)nc1-2` , report its measured growth.
stdout: 10.4

stdin: Given the entry `Cc1cc2c(-c3nc4ccccn4c3NC34CC5CC(CC(C5)C3)C4)c(O)c(O)cc2c(O)c1-c1c(C)cc2c(-c3nc4ccccn4c3NC34CC5CC(CC(C5)C3)C4)c(O)c(O)cc2c1O` , report its measured growth.
stdout: 12.3

stdin: Given the entry `Cc1cc(N(CCNc2ccnc3cc(Cl)ccc23)Cc2cccs2)nc(Cl)n1` , report its measured growth.
stdout: 5.64

stdin: Given the entry `Cc1ccc(-[n+]2c3cc(N)c(C)cc3nc3cc(C)c(Nc4ccccc4)cc32)cc1` , report its measured growth.
stdout: -81.8

stdin: Given the entry `NC1(c2ccc(-c3nc4ccn5c(=O)[nH]nc5c4cc3-c3ccccc3)cc2)CCC1` , report its measured growth.
stdout: 12.2

stdin: Given the entry Nc1nc(N)c2cc(CNc3ccc(C(=O)NC(CC(=O)O)C(=O)O)cc3)ccc2n1 (stereo not drawn) , report its measured growth.
stdout: 17.3

stdin: Given the entry Cc1ccsc1C(NC(=O)c1ccccc1)c1cc(Cl)c2cccnc2c1O (stereo not drawn) , report its measured growth.
stdout: 21.8

stdin: Given the entry `C[C@@H](Nc1cc(F)cc(F)c1)c1cc(C(=O)N(C)C)cc2c(=O)cc(N3CCOCC3)oc12` , report its measured growth.
stdout: 25.2

stdin: Given the entry `CN1CCC(COc2cnc(-c3cccc(Cn4nc(-c5cccc(C#N)c5)ccc4=O)c3)nc2)CC1` , report its measured growth.
stdout: 60.3

stdin: Given the entry `CC(=O)C(C(C)=O)C(c1ccccc1)C(C(C)=O)C(C)=O` , report its measured growth.
stdout: 90.2
